Data origin: patent US11767298B2

Molecular target: GFP-PfPK9 (Plasmodium falciparum, UniProt Q8IEG4)
Sequence (Q8IEG4 entry or part of it): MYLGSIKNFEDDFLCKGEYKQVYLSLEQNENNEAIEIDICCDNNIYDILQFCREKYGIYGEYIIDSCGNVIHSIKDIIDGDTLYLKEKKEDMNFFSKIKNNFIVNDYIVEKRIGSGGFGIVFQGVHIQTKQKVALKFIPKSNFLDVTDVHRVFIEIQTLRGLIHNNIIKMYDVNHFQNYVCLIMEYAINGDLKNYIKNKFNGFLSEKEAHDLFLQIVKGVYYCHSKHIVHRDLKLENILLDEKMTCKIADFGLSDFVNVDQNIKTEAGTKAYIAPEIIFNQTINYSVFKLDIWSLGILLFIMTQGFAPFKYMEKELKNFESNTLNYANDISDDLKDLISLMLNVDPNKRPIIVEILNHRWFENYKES
Assay: ATP-competitive binding assay (ATP-sepharose pull-down, FLECS)
Conditions: GFP-PfPK9; Kd calculated from EC50 of ATP pull-down dose-response; read-out: Kd, app
For each of the compounds below, state its pKd.
Answers are plain numbers, as −log10 of the molar value.

Some compounds with known pKd results, for comparison:
O=C(Nc1cccc2cnccc12)C1CCCN(c2cnccn2)C1 (stereo not shown)    5.49
CCCn1c(NC(=O)c2cccc(C(N)=O)c2)nc2ccccc21    6.70

Could you now look at the following compound, please?
Requested field: pKd. Item: `CCCn1c(NC(=O)c2cncn2-c2ccc(F)cc2)nc2ccccc21`
6.22

###

Molecular target: IRAK4 (Homo sapiens)
Sequence (Q9NWZ3 whole entry): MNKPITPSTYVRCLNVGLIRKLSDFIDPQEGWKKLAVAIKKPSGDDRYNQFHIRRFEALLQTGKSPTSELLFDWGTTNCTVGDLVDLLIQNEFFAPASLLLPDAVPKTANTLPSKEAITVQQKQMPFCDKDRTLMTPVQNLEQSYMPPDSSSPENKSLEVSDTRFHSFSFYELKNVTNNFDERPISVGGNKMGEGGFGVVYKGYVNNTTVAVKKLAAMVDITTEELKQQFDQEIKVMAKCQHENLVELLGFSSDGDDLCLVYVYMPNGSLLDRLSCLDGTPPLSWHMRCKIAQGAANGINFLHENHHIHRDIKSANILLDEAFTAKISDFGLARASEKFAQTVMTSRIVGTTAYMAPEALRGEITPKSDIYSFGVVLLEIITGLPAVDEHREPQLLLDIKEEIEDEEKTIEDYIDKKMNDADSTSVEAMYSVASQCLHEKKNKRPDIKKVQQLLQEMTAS
measure: IC50 (nM)
Answers are plain numbers, in nM.

Could you share which IC50 value was measured for `CCCn1c(NC(=O)c2cccc(C(N)=O)c2)nc2ccccc21` ?
120

###

Biological target: TAK1 (Homo sapiens)
Sequence (O43318 with tags, fused parts or gaps limits assumed): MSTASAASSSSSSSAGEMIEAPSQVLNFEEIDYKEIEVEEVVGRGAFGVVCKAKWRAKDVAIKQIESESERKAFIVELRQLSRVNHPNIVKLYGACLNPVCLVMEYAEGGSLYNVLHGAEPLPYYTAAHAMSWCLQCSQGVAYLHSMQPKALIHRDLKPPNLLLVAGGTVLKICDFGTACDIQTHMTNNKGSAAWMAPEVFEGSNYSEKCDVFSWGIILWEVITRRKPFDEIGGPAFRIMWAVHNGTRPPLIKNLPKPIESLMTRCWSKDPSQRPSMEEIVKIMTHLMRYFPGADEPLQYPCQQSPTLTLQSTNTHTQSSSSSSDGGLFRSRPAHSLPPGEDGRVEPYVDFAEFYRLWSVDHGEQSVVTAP
measure: IC50 (nM)
Give bare numbers, in nM.

Report IC50 for `CCCn1c(NC(=O)c2cccc(C(N)=O)c2)nc2ccccc21` please.
9.5
